- SUBJECT_OF_TEST: T1, HLA-A*02:01 (human), P04439
- T1 chain: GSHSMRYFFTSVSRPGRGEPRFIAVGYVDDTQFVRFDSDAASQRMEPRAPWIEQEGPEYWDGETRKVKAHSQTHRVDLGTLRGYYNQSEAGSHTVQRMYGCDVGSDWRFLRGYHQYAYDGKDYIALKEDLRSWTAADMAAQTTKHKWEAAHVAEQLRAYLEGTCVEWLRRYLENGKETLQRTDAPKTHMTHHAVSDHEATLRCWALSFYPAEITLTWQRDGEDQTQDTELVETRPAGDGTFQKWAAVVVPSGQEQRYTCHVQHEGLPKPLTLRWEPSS
- REPORTED_CONDITIONS: chains peptide; modification not given
ENDPOINT_NAME: pIC50
// returns pIC50 (minus log10 of molar concentration), number only

Request: Given KQWFLDLPL [… (SEQ ID NO: 341)] , respond with its pIC50.
Response: 7.96
